System: A498 renal
protocol-details: NCI tumour cell line growth inhibition, 48 h
measure: TGI

INSERT INTO results (compound, experimental_value) VALUES
  ('COC(C(=O)NCCCCNC(=O)C(OC)c1ccccc1)c1ccccc1 (stereo not drawn)', '> 100 µM'),
  ('COc1ccc(OC)c(NS(=O)(=O)c2ccc3nc(C)n(NS(=O)(=O)c4cc(OC)ccc4OC)c(=O)c3c2)c1', '> 100 µM'),
  ('O=Cc1ccc(-c2ccc(-c3nc4ccccc4o3)cc2)o1', '> 100 µM');

---

The reader will find reported TGI values listed item by item below.
Test system: SW-620 colon
protocol-details: NCI tumour cell line growth inhibition, 48 h
measure: TGI

INSERT INTO results (smiles_record, experimental_value) VALUES
  ('O=C1OC(=O)c2cc(S(=O)(=O)c3ccc4c(c3)C(=O)OC4=O)ccc21', '> 100 µM'),
  ('CC(=O)[CH-]C(=O)c1ccccc1.CC(=O)[CH-]C(=O)c1ccccc1.CCOCC[O-].CCOCC[O-].[Ti+4]', '> 100 µM'),
  ('CC(=O)N=C1N(/C=C2\C(=O)Oc3ccccc3C2=O)C(=O)/C(=C/c2ccc(NC(C)=O)cc2)N1C', '> 100 µM');

---

Consider the following compounds and their measured TGI readings.
System: SK-MEL-5 melanoma
protocol-details: NCI tumour cell line growth inhibition, 48 h
measure: TGI (µM)

INSERT INTO assay_data (compound, measure, unit_of_measure, qualifier_operator, experimental_value) VALUES
  ('OCC(O)c1nc2ccc3[nH]ncc3c2c2c1CCCC2 (stereo not given)', 'TGI', 'µM', '=', 2.99),
  ('O=C1/C(=C\c2ccccn2)c2ccccc2N1c1c(Cl)cccc1Cl', 'TGI', 'µM', '=', 3.03),
  ('CCC(CNc1cc(OC)cc2cccnc12)NC1CCCCC1 (stereo not given)', 'TGI', 'µM', '=', 30.6),
  ('CCCCCCCCCCCCCCCCOC[C@@H](COC(c1ccccc1)(c1ccccc1)c1ccccc1)O[P+](=S)OC (stereo not given in full)', 'TGI', 'µM', '=', 22.4),
  ('C/C=C/CC(C)[C@@H](O)[C@H](NC)C(=O)O (stereo not given in full)', 'TGI', 'µM', '>', 100);

---

Overview of recorded log10 of TGI for various compounds
Tested on: OVCAR-8 ovarian
protocol-details: NCI tumour cell line growth inhibition, 48 h
measure: log10 of TGI (log10 of the value in µM)

INSERT INTO assay_data (compound, experimental_value) VALUES
  ('COc1ccc2cc(CN3CCC(C4CCNCC4)CC3)ccc2c1', 1.34),
  ('CCN(CC)CCCC(C)N=C(C1=C(C(=NC(C)CCCN(CC)CC)c2cccc(OC)c2)C(=O)NC1=O)c1cccc(OC)c1 (stereo not given)', 0.84),
  ('CN(Cc1cc(Cl)cc(Cl)c1)CC(C(=O)c1ccccc1)c1ccccc1 (stereo not given)', 1.33),
  ('CC1=C(C(=O)c2ccccc2)C23C(=O)N(c4ccccc4)C(=O)C2=C(O)C=CC3(O)N1 (stereo not given)', 2.00),
  ('COC(=O)N1CC2C3C4CC(C(c5ccccc5)=C4c4ccccc4)C3C21 (stereo not given)', 1.55),
  ('CCN(CC)CCCNC(=O)c1c2c(n3ccccc13)C(=O)c1ncccc1C2=O', 0.32);

---

System: NCI-H460 lung
protocol-details: NCI tumour cell line growth inhibition, 48 h
measure: TGI

INSERT INTO results (molecule, measure, experimental_value) VALUES
  ('CC1OC(OC2C(OC(=O)[C@]34CCC(C)(C)C[C@H]3C3=CC[C@@H]5[C@@]6(C)CC[C@H](OC7OC(C(=O)O)C(O)C(OC8OCC(O)C(O)C8O)C7O)C(C)(C)[C@@H]6CC[C@@]5(C)[C@]3(C)CC4)OCC(O)C2O)C(O)C(OC2OCC(O)C(O)C2O)C1OC1OCC(O)C(OC2OCC(O)C(O)C2O)C1O (stereo partly drawn)', 'TGI', '> 100 µM'),
  ('COC(C)(C)C1(O)CCC(C)CC1=O (stereo not drawn)', 'TGI', '> 100 µM'),
  ('NNC(=O)c1nnn(CCc2ccccc2)c1C(=O)NN', 'TGI', '> 100 µM');

---

Tested on: TK-10 renal
protocol-details: NCI tumour cell line growth inhibition, 48 h
measure: GI50

INSERT INTO measurements (compound, experimental_value) VALUES
  ('O=C(OCc1ncc(-c2ccc(C(F)(F)F)cc2)c(NC2CCCCCC2)n1)c1c(F)c(F)c(F)c(F)c1F', '21.5 µM'),
  ('COc1ccccc1CNCCCN1C(=O)c2ccc3c4c(ccc(c24)C1=O)C(=O)N(CCCCNCCCN)C3=O', '2.62 µM'),
  ('NC(=O)c1cccc(Nc2nccc(Nc3cccc4[nH]ncc34)n2)c1', '20.5 µM'),
  ('Cc1cc(CC(C)CC(C)(C)C)n(O)c(=O)c1 (configuration not stated) (tested in a mixture with another compound)', '5.09 µM'),
  ('CC(C)(C)CC(C)(C)NCc1cc(C(C)(C)C)cc(CNC(C)(C)CC(C)(C)C)c1O', '2.55 µM'),
  ('CN1C(=O)N[C@H]2[C@@H]3NC(=O)c4ccc(Br)n4[C@@H]3C[C@]21O', '0.429 µM'),
  ('COc1cc(Nc2nc3ccccc3cc2C(=O)Nc2ccc(F)c(F)c2)cc(OC)c1OC', '4.52 µM');

---

Each record here notes measured GI50.
Test system: PC-3 prostate
protocol-details: NCI tumour cell line growth inhibition, 48 h
measure: GI50

INSERT INTO results (molecule, experimental_value) VALUES
  ('CC(C)(C)CC(C)(C)NCc1cc(C(C)(C)C)cc(CNC(C)(C)CC(C)(C)C)c1O', '2860 nM'),
  ('COC(=O)Cc1ccc(Oc2cnc3cc(F)c(F)cc3n2)cc1', '63700 nM'),
  ('COc1ccc(C(=O)c2cc3c(N)c(C(=O)Nc4ccc(C)cc4)sc3nc2C)cc1', '4200 nM'),
  ('CCN(CC)CCCNC(=O)c1c2c(n3ccccc13)C(=O)c1ncccc1C2=O', '616 nM'),
  ('CCCC(CCC)C(=O)OCC1(CO)C/C(=C\c2ccc(F)cc2)C(=O)O1 (configuration not stated)', '10400 nM'),
  ('COc1cc(Nc2nc3ccccc3cc2C(=O)Nc2ccc(F)c(F)c2)cc(OC)c1OC', '2210 nM'),
  ('Cc1ccc(N(CC(=O)Nc2ccc(S(=O)(=O)N3CCC(N4CCCC4)CC3)cc2)S(=O)(=O)c2ccc(Cl)cc2)cc1', '1880 nM');

---

Test system: CAKI-1 renal
protocol-details: NCI tumour cell line growth inhibition, 48 h
// TGI lookup, one value per entry
measure: TGI

INSERT INTO results (molecule, measure, experimental_value) VALUES
  ('COc1ccc(N2C=Nn3c(nc4sc5c(c4c3=O)CCCC5)C2)cc1', 'TGI', '> 100 µM'),
  ('Cc1cccc(C)c1NC(=O)Nc1ccc(S(N)(=O)=O)cc1', 'TGI', '> 100 µM'),
  ('COc1cc(-c2nc(-c3nc4ccccc4[nH]3)cc3c2[nH]c2ccccc23)cc(OC)c1OC', 'TGI', '> 100 µM'),
  ('CC(C)C(/C=C/c1ccc(Cl)c(Cl)c1)=N\NC(=O)N/N=C(/C=C/c1ccc(Cl)c(Cl)c1)C(C)C', 'TGI', '> 100 µM'),
  ('CCn1c(-c2cc3ccccc3cc2O)nn(C(=O)c2c(Cl)cccc2Cl)c1=S', 'TGI', '> 50 µM'),
  ('C[N+]1(CCCl)CC[N+](C)(CCCl)CC1 (stereo unspecified)', 'TGI', '> 100 µM'),
  ('Cc1ccc(/C(O)=C/c2nc3ccccc3s/c2=N/CS(=O)(=O)c2ccc(C)cc2)cc1', 'TGI', '> 10 µM'),
  ('CCCC(CCC)C(=O)OCC1(CO)C/C(=C\c2ccc(F)cc2)C(=O)O1 (stereo unspecified)', 'TGI', '27.4 µM'),
  ('Cc1ccc(S(=O)(=O)NNC(=O)c2cc(C)c(C)cc2N)cc1', 'TGI', '> 100 µM'),
  ('COC(=O)Cc1ccc(Oc2cnc3cc(F)c(F)cc3n2)cc1', 'TGI', '> 100 µM'),
  ('COc1cccc(C2c3cc4c(cc3OC(N3CCCC3)C2C)OCO4)c1O (stereo unspecified)', 'TGI', '68.3 µM'),
  ('CN(C)C(=O)OC(Cn1cncn1)(Cn1cncn1)c1ccc(Cl)cc1Cl', 'TGI', '> 100 µM'),
  ('CC(=O)OCC1OC(Oc2cc(C)c(O)cc2C/C=C(\C)CC/C=C(\C)CC(=O)CC(C)C)C(O)C(OC(C)=O)C1OC(C)=O (stereo unspecified)', 'TGI', '> 50 µM'),
  ('CC(=O)[CH-]C(=O)c1ccccc1.CC(=O)[CH-]C(=O)c1ccccc1.CCOCC[O-].CCOCC[O-].[Ti+4]', 'TGI', '57.8 µM'),
  ('COc1cc2c(cc1OC)C1(COc3cc(O)c(O)c(O)c3C1=O)C2 (stereo unspecified)', 'TGI', '> 50 µM'),
  ('N#CC1=C(N)NC(N2CCOCC2)=NC12Nc1ccccc1N2', 'TGI', '37.8 µM');
